Tested on: human erythrocytes
measurement_notes: Hemolytic assay on human erythrocytes
Type: cell-based
applied_conditions: 1 hour
endpoint_name: HE50 (Hemolysis 50) (µM)
Number in µM, nothing else.

Using the record for COC(=O)[C@@H](Cc1c[nH]c2ccccc12)NC(=O)[C@@H]1C(O)C[C@@]2(O)C[C@@H](O)C[C@@H](O)[C@H](O)CC[C@@H](O)C[C@@H](O)CC(=O)OC(C)C(C)[C@H](O)C(C)/C=C/C=C/C=C/C=C/C=C/C=C/C=C/[C@H](OC3OC(C)C(O)C(N)C3O)CC1O2 (some centres unmarked) [A-7, N-(D)-tryptophanamide of AmB] , report its HE50 (Hemolysis 50).
80

Using the record for C[C@@H]1[C@H](O)[C@@H](C)/C=C/C=C/C=C/C=C/C=C/C=C/C=C/[C@H](O[C@@H]2O[C@H](C)[C@@H](O)[C@H](N)[C@@H]2O)C[C@@H]2O[C@](O)(C[C@@H](O)C[C@@H](O)[C@H](O)CC[C@@H](O)C[C@@H](O)CC(=O)O[C@H]1C)C[C@H](O)[C@H]2C(=O)O , report its HE50 (Hemolysis 50).
7

Using the record for COC(=O)C(Cc1c[nH]c2ccccc12)NC(=O)[C@@H]1C(O)C[C@@]2(O)C[C@@H](O)C[C@@H](O)[C@H](O)CC[C@@H](O)C[C@@H](O)CC(=O)OC(C)C(C)[C@H](O)C(C)/C=C/C=C/C=C/C=C/C=C/C=C/C=C/[C@H](OC3OC(C)C(O)C(N)C3O)CC1O2 (some centres unmarked) [A-6, N-(L)-tryptophanamide of AmB] , report its HE50 (Hemolysis 50).
58

Using the record for CC(NC(=O)[C@@H]1C(O)C[C@@]2(O)C[C@@H](O)C[C@@H](O)[C@H](O)CC[C@@H](O)C[C@@H](O)CC(=O)OC(C)C(C)[C@H](O)C(C)/C=C/C=C/C=C/C=C/C=C/C=C/C=C/[C@H](OC3OC(C)C(O)C(N)C3O)CC1O2)c1ccccc1 (stereo partly drawn) [A-4, N—(S)-α-phenylethylamide of AmB] , report its HE50 (Hemolysis 50).
46

Using the record for CC1OC(O[C@H]2/C=C/C=C/C=C/C=C/C=C/C=C/C=C/C(C)[C@@H](O)C(C)C(C)OC(=O)C[C@H](O)C[C@H](O)CC[C@@H](O)[C@H](O)C[C@H](O)C[C@]3(O)CC(O)[C@@H](C(=O)N(C(C)C)C(C)C)C(C2)O3)C(O)C(N)C1O (some centres unmarked) [A-3, N-diisopropylamide of AmB] , report its HE50 (Hemolysis 50).
53

Using the record for CC1OC(O[C@H]2/C=C/C=C/C=C/C=C/C=C/C=C/C=C/C(C)[C@@H](O)C(C)C(C)OC(=O)C[C@H](O)C[C@H](O)CC[C@@H](O)[C@H](O)C[C@H](O)C[C@]3(O)CC(O)[C@@H](C(=O)NC4CCCCC4)C(C2)O3)C(O)C(N)C1O (some centres unmarked) [A-2, N-cycloheximide of AmB] , report its HE50 (Hemolysis 50).
45

Using the record for CC1OC(O[C@H]2/C=C/C=C/C=C/C=C/C=C/C=C/C=C/C(C)[C@@H](O)C(C)C(C)OC(=O)C[C@H](O)C[C@H](O)CC[C@@H](O)[C@H](O)C[C@H](O)C[C@]3(O)CC(O)[C@@H](C(=O)N[C@H](C)c4ccccc4)C(C2)O3)C(O)C(N)C1O (stereo partly drawn) [A-5, N—(R)-α-phenylethylamide of AmB] , report its HE50 (Hemolysis 50).
42

Using the record for CC1OC(O[C@H]2/C=C/C=C/C=C/C=C/C=C/C=C/C=C/C(C)[C@@H](O)C(C)C(C)OC(=O)C[C@H](O)C[C@H](O)CC[C@@H](O)[C@H](O)C[C@H](O)C[C@]3(O)CC(O)[C@@H](C(=O)NCc4ccccc4)C(C2)O3)C(O)C(N)C1O (some centres unmarked) [A-1, N-benzylamide of AmB] , report its HE50 (Hemolysis 50).
52
